Hi there, I'd appreciate the recorded normalized growth for every entry that follows.
Experiment: chemical genetic growth profiling, strain panel (AID 1159580);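 note: tested at 20 µM; growth read once vehicle control cultures reached saturation at 30 °C; 1 = growth at the plate median or of vehicle wells; lower values mean less growth of the strain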
Conditions: S. cerevisiae deletion strains, growth OD, locus YLR403W, strain SFP1, active compounds read low
The whole screen tested about 5,500 compounds, of which about 2,000 (36%) were called active. Another 18% or so got no clear call; they are omitted. The list shows a part of the results.

stdin: Given `CC(C)(C)c1cc(C(=O)/C(C#N)=N\Nc2ccc(Cl)cc2)no1` , state its recorded normalized growth.
stdout: 0.149 (active)

stdin: Given `CN(NC(=S)Nc1cc(Cl)ccc1Cl)c1ccc(C(F)(F)F)cc1[N+](=O)[O-]` , state its recorded normalized growth.
stdout: 0.929 (inactive)

stdin: Given `O=C(SCc1c(Cl)cccc1Cl)c1ccc([N+](=O)[O-])o1` , state its recorded normalized growth.
stdout: 0.201 (active)

stdin: Given `N#C/C(=C\C=C\c1ccccc1)c1nc2ccccc2[nH]1` , state its recorded normalized growth.
stdout: 0.86 (inactive)

stdin: Given `COc1ccc(/C(C#N)=C2C=C/C(=N/O)C(Cl)=C\2)cc1` , state its recorded normalized growth.
stdout: 0.866 (inactive)

stdin: Given `Oc1ccc(-n2nnnc2SCc2ccc(OC(F)(F)F)cc2)cc1` , state its recorded normalized growth.
stdout: 0.828 (inactive)

stdin: Given `CSc1nc(Sc2n[nH]c(-c3ccccc3)n2)cc(Sc2n[nH]c(-c3ccccc3)n2)n1` , state its recorded normalized growth.
stdout: 1.03 (inactive)

stdin: Given `N/C(=N/OC(=O)c1ccccc1Cl)c1ccc2nonc2c1` , state its recorded normalized growth.
stdout: 0.96 (inactive)

stdin: Given `O=C(O)c1cccc2cccc(C(=O)O)c12` , state its recorded normalized growth.
stdout: 0.00123 (active)

stdin: Given `Cc1nn(Cc2cccc(C(=O)O/N=C(/N)c3ccc(Cl)cc3)c2)c(C)c1Br` , state its recorded normalized growth.
stdout: 0.93 (inactive)

stdin: Given `Cc1oc(-c2ccc(Cl)cc2)cc1C(=O)N1CCN(c2ccc(C(F)(F)F)cn2)CC1` , state its recorded normalized growth.
stdout: 0.94 (inactive)

====

Experiment: chemical genetic growth profiling, strain panel (AID 1159580);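 note: tested at 20 µM; growth read once vehicle control cultures reached saturation at 30 °C; 1 = growth at the plate median or of vehicle wells; lower values mean less growth of the strain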
Settings: S. cerevisiae deletion strains, growth OD, locus YCL029C, strain bik1
About 2,000 (36%) of roughly 5,500 compounds were called active. Inconclusive results (about 18%) are left out. Rule as the data show it: active = normalized growth mostly below about 0.91 (no sharp cut-off); inconclusive = no clear call, values can overlap the other calls; inactive = mostly above about 0.92. The list shows a part of the results.
The reply should name one outcome from active, inactive

stdin: Please let me know the test result on file for `COc1cc2c(cc1-c1coc3c4c(c(OC)cc3c1=O)OC(C)(C)C=C4)OCO2` .
stdout: inactive

stdin: Please let me know the test result on file for `CC(=O)N[C@@H](CC(=O)O)C(=O)O` .
stdout: inactive

stdin: Please let me know the test result on file for `COc1ccc2[nH]cc(CCNC(C)=O)c2c1` .
stdout: inactive

stdin: Please let me know the test result on file for `CC(C)=CCOc1c2occc2cc2ccc(=O)oc12` .
stdout: active

stdin: Please let me know the test result on file for CCOc1nc2cccc(C(=O)OC(C)OC(=O)OC3CCCCC3)c2n1Cc1ccc(-c2ccccc2-c2nn[nH]n2)cc1 (stereo not drawn) .
stdout: inactive

stdin: Please let me know the test result on file for `COc1cc2ccc(=O)oc2c2ccoc12` .
stdout: inactive

stdin: Please let me know the test result on file for `CCS(=O)(=O)CCn1c([N+](=O)[O-])cnc1C` .
stdout: inactive

stdin: Please let me know the test result on file for O=C1OC(=O)C2C3CCC(O3)C12 (stereo not drawn) .
stdout: inactive

stdin: Please let me know the test result on file for `O=c1[nH]c2ccccc2n1C1CCN(CCCC(c2ccc(F)cc2)c2ccc(F)cc2)CC1` .
stdout: inactive

stdin: Please let me know the test result on file for `COc1c2occc2cc2ccc(=O)oc12` .
stdout: inactive

stdin: Please let me know the test result on file for `CC(C)=CCOc1cc2oc(=O)ccc2cc1O` .
stdout: inactive

stdin: Please let me know the test result on file for `O=c1c(-c2ccc3c(c2)OCO3)coc2cc(O)ccc12` .
stdout: inactive

stdin: Please let me know the test result on file for `Cc1cccc(N(C)C(=S)Oc2ccc3ccccc3c2)c1` .
stdout: inactive

stdin: Please let me know the test result on file for `Fc1ccc(C(c2ccc(F)cc2)N2CCN(C/C=C/c3ccccc3)CC2)cc1` .
stdout: inactive

stdin: Please let me know the test result on file for `C[C@H]1C(=O)O[C@@H]2CCN3CC=C(COC(=O)[C@](C)(O)[C@]1(C)O)[C@H]23` .
stdout: inactive

stdin: Please let me know the test result on file for `CC(C)=CCc1c(O)cc2occ(-c3ccc4c(c3)OCO4)c(=O)c2c1O` .
stdout: inactive

stdin: Please let me know the test result on file for `CN1CCN(C(c2ccccc2)c2ccccc2)CC1` .
stdout: inactive

stdin: Please let me know the test result on file for `COc1c2c(cc3occ(-c4ccc5c(c4)OCO5)c(=O)c13)OC(C)(C)C=C2` .
stdout: inactive

stdin: Please let me know the test result on file for `CCCc1nc(C(C)(C)O)c(C(=O)OCc2oc(=O)oc2C)n1Cc1ccc(-c2ccccc2-c2nn[nH]n2)cc1` .
stdout: inactive

stdin: Please let me know the test result on file for `COc1cc2ccc(=O)oc2c(O)c1O` .
stdout: inactive

stdin: Please let me know the test result on file for CC(C)CCCC(C)C1CCC2C3CCC4CC(=O)CCC4(C)C3CCC12C (stereo not drawn) .
stdout: inactive

stdin: Please let me know the test result on file for `COc1cc2ccc(=O)oc2cc1O` .
stdout: inactive

stdin: Please let me know the test result on file for C[C@]12CCC3C(CC[C@H]4CC(=O)CC[C@]34C)C1CCC2=O (stereo partly drawn) .
stdout: inactive

The origin of these recorded values is PubChem BioAssay AID1159580.
